Target: Corticotropin-releasing factor receptor 1 (Homo sapiens, UniProt P34998)
Sequence (P34998 whole entry): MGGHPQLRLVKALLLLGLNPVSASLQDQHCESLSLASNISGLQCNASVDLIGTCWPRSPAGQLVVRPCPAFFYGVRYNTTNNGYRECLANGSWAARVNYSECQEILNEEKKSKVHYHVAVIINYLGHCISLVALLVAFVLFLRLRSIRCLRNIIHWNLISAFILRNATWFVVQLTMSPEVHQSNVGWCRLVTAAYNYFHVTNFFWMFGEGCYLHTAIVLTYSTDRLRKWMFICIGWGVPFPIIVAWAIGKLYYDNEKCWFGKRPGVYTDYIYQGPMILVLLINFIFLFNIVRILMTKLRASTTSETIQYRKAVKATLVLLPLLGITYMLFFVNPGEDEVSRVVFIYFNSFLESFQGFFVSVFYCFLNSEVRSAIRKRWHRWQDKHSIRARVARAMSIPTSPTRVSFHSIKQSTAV
Assay: Displacement of [125I]CRF from human CRF1 receptor expressed in CHO-K1 cells after 2 hrs by gamma counter
Type: cell-based
Measured IC50, listed per entry.
I only need the number, in nM, no unit after it.

Known IC50 results, listed for orientation:
compound	IC50 / nM
CCOc1ccc(-c2nn3c(C)cc(C(CC)CC)c3cc2C)c(CC)c1	13.4
CCC(CC)c1cc(C)n2nc(-c3ccc(OC)cc3C)n(C)c(=O)c12	2.6
Cc1nc(N(C)C)ccc1-c1nn2c(C)cc(C(C)C)c2c(=O)n1C	131
CCC(CC)c1cc(C)n2nc(-c3ccc(OC)cc3Cl)[nH]c(=O)c12	14.3
CCC(CC)c1cc(C)n2nc(-c3ccc(OC)cc3Cl)n(CCO)c(=O)c12	4.4

Query: What measured IC50 goes with CCC(CC)c1cc(C)n2nc(-c3ccc(OC)cc3C)n(C3CC3)c(=O)c12 ?
Reply: 5.7

Query: What measured IC50 goes with CCC(CC)c1cc(C)n2nc(-c3ccc(OC)cc3Cl)n(C)c(=O)c12 ?
Reply: 3.8

Query: What measured IC50 goes with CCC(CC)c1cc(C)n2nc(-c3ccc(OC)cc3C)n(CC)c(=O)c12 ?
Reply: 9.7

Query: What measured IC50 goes with CCC(CC)c1nc(C)n2nc(-c3ccc(OC)cc3C)c(C)cc12 ?
Reply: 122

Query: What measured IC50 goes with CCC(C)c1cc(C)n2nc(-c3ccc(OC)cc3C)n(C)c(=O)c12 (configuration not stated) ?
Reply: 5

Query: What measured IC50 goes with CCC(CC)c1cc(C)n2nc(-c3ccc(OC)nc3C)n(C)c(=O)c12 ?
Reply: 3.8

Query: What measured IC50 goes with CCC(CC)c1cc(C)n2nc(-c3ccc(OC)cc3C)[nH]c(=O)c12 ?
Reply: 149

Query: What measured IC50 goes with COc1ccc(-c2nn3c(C)cc(C(C)C)c3c(=O)n2C)c(Cl)c1 ?
Reply: 8.7

Query: What measured IC50 goes with CCC(C)c1cc(C)n2nc(-c3c(C)cc(OC)cc3C)n(C)c(=O)c12 (configuration not stated) ?
Reply: 4.2

Query: What measured IC50 goes with CCC(CC)c1cc(C)n2nc(-c3cc4c(cc3C)OCO4)c(C)cc12 ?
Reply: 18.3

Query: What measured IC50 goes with CCC(C)c1cc(C)n2nc(-c3ccc(N(C)C)nc3C)n(C)c(=O)c12 (configuration not stated) ?
Reply: 81.2

Query: What measured IC50 goes with COc1cc(C)c(-c2nn3c(C)cc(C(C)C)c3c(=O)n2C)c(C)c1 ?
Reply: 13.1
